Data provenance: patent US20240139265A1

A collection of binders and their measured exchange rate with Pos peptide
molecular target: T1, HLA-B*08:01 class I complex (biotinylated heavy chain with beta2-microglobulin) (human); assay: UV peptide exchange + HLA class I ELISA; % of Pos control peptide
T1 construct: Conditional HLA class I complex loaded with a UV-labile peptide that is exchanged for the test peptide

[
  {
    "binder": "IVWWCPMSR (Synthetic 9-mer) [P98 9-mer neoantigen peptide IVWWCPMSR (TP53 (R213D) frameshift)]",
    "exchange rate with Pos peptide": "2.4%"
  },
  {
    "binder": "IPVLTRWPL (Synthetic 9-mer) [P19 9-mer neoantigen peptide IPVLTRWPL (TMEM222-LOC644961 fusion)]",
    "exchange rate with Pos peptide": "14.5%"
  },
  {
    "binder": "HVPKILSGK (Synthetic 9-mer) [P58 9-mer neoantigen peptide HVPKILSGK (AR (Q903H) missense)]",
    "exchange rate with Pos peptide": "5.3%"
  },
  {
    "binder": "FPVGAEGTF (Synthetic 9-mer) [P27 9-mer neoantigen peptide FPVGAEGTF (FAM126B-ORC2 fusion)]",
    "exchange rate with Pos peptide": "6.4%"
  },
  {
    "binder": "GVLRRLLCR (Synthetic 9-mer) [P37 9-mer neoantigen peptide GVLRRLLCR (TSTD1-F11R fusion)]",
    "exchange rate with Pos peptide": "3.3%"
  },
  {
    "binder": "NSKMALNSL (Synthetic 9-mer) [P35 9-mer neoantigen peptide NSKMALNSL (TMPRSS2-ERG fusion)]",
    "exchange rate with Pos peptide": "13.7%"
  },
  {
    "binder": "RVGNCKHLK (Synthetic 9-mer) [P82 9-mer neoantigen peptide RVGNCKHLK (AR-V7 splice variant)]",
    "exchange rate with Pos peptide": "1.4%"
  },
  {
    "binder": "CYLGRQKRF (Synthetic 9-mer) [P61 9-mer neoantigen peptide CYLGRQKRF (FOXA1.p.R261G missense)]",
    "exchange rate with Pos peptide": "3.6%"
  },
  {
    "binder": "FLFLLLPLS (Synthetic 9-mer) [P87 9-mer neoantigen peptide FLFLLLPLS (AR-Intron splice variant)]",
    "exchange rate with Pos peptide": "3.1%"
  },
  {
    "binder": "RAKCKFSIL (Synthetic 9-mer) [P56 9-mer neoantigen peptide RAKCKFSIL (SPOP(F102C) missense)]",
    "exchange rate with Pos peptide": "38%"
  },
  {
    "binder": "CPMSRLRLA (Synthetic 9-mer) [P46 9-mer neoantigen peptide CPMSRLRLA (TP53 (R213D) frameshift)]",
    "exchange rate with Pos peptide": "14.5%"
  },
  {
    "binder": "IQYSCMGLM (Synthetic 9-mer) [P50 9-mer neoantigen peptide IQYSCMGLM (AR (W742C) missense)]",
    "exchange rate with Pos peptide": "4.7%"
  },
  {
    "binder": "STRRAVRRM (Synthetic 9-mer) [P16 9-mer neoantigen peptide STRRAVRRM (MSMB-NCOA4 fusion)]",
    "exchange rate with Pos peptide": "6.2%"
  },
  {
    "binder": "LMAQRLLLR (Synthetic 9-mer) [P97 9-mer neoantigen peptide LMAQRLLLR (FOXRED2-TXN2 fusion)]",
    "exchange rate with Pos peptide": "2.7%"
  },
  {
    "binder": "RAVRRMNTF (Synthetic 9-mer) [P17 9-mer neoantigen peptide RAVRRMNTF (MSMB-NOCA4 fusion)]",
    "exchange rate with Pos peptide": "9%"
  },
  {
    "binder": "QLIAMDSAI (Synthetic 9-mer) [P22 9-mer neoantigen peptide QLIAMDSAI (SLC45A3-ELK4 fusion)]",
    "exchange rate with Pos peptide": "3.9%"
  },
  {
    "binder": "NMVENGCYL (Synthetic 9-mer) [P59 9-mer neoantigen peptide NMVENGCYL (FOXA1 (F254V) missense)]",
    "exchange rate with Pos peptide": "5.5%"
  },
  {
    "binder": "YLRRQKRLK (Synthetic 9-mer) [P60 9-mer neoantigen peptide YLRRQKRLK (FOXA1.p.F266L missense)]",
    "exchange rate with Pos peptide": "10.2%"
  },
  {
    "binder": "LLERNSFEV (Synthetic 9-mer) [P73 9-mer neoantigen peptide LLERNSFEV (TP53 (G266E) missense)]",
    "exchange rate with Pos peptide": "2.6%"
  },
  {
    "binder": "FFKRAAEGF (Synthetic 9-mer) [P77 9-mer neoantigen peptide FFKRAAEGF (AR-V3 splice variant)]",
    "exchange rate with Pos peptide": "3.4%"
  }
]
